experiment: physchem; details: water
READOUT_LABEL: solubility (µg/mL)

1. COc1c(N2CCN(C(=O)C(N)CCCNC(=N)N)C(C)C2)c(F)cc2c(=O)c(C(=O)O)cn(C3CC3)c12 (centres unmarked) [GFX-ARG]
2. COc1c(N2CCNC(C)C2)c(F)cc2c(=O)c(C(=O)O)cn(C3CC3)c12 (centres unmarked) [GFX, gatifloxacin]
Input pair: 1 , 2 . Output: entry with lower solubility. Reply with the label of the item you choose.
2

###

experiment: physchem; conditions: water
READOUT_LABEL: solubility (µg/mL)

COMPOUND	UNITS_OF_MEASURE	solubility
Cc1ccc(-c2cc(C(F)(F)F)nn2-c2ccc(S(=O)(=O)NC(=O)C(N)CCCCN)cc2)cc1 (stereo not drawn)	µg/mL	50

I. COc1c(N2CCN(C(=O)C(N)CCCCN)C(C)C2)c(F)cc2c(=O)c(C(=O)O)cn(C3CC3)c12 (stereo not drawn)
II. Cc1ccc(-c2cc(C(F)(F)F)nn2-c2ccc(S(=O)(=O)NC(=O)C(N)CCCNC(=N)N)cc2)cc1 (stereo not drawn)
Problem: Given the entries I and II , determine which has the lower reported solubility. // output: label of the selected item
II
(II: 35 µg/mL, I: 48000 µg/mL)
